- System: Saccharomyces cerevisiae
- Test summary: protein stability index of tFT-peptide fusion (C-terminal peptide) (PSI (0-1 scale)); higher = more stable (slower turnover)
- Details: genetic background: wild type; temperature: 30 C
Listing of recorded protein stability index by entry.
Give a plain numeric answer without units written out.

Prompt line: Answer with reported protein stability index of "PPLAPPHPCPPP"
Response line: 0.698

----------
- Tested on: Saccharomyces cerevisiae
- Test summary: protein stability index of tFT-peptide fusion in deletion strain of DAS1 (PSI (0-1 scale)); higher = more stable (slower turnover)
Endpoint label: protein stability index
Give a plain numeric answer without units written out.

Example entries begin here.
- PWKRNHLIKLLN: 0.606
- WDKRNHLIKLLN: 0.602
- PVKRNHLIKLLN: 0.608

Please look at the following sequence next.
Prompt line: Answer with reported protein stability index of "VTSCGYKFRTNN"
Response line: 0.674
